The reported measurements were obtained from paper PMC6039436.

# Assay Info: Biodistribution in ddY mice
# Type: in vivo
# Details: i.v. co-injection, 10 min
Marks after values point to notes of the source that are not given here.
Measure: Radioactivity in Lung

Illustrative cases are given below, each with its answer.
**Q:** If you can, please state the reported Radioactivity in Lung value of COCCOc1ccc2c(c1)ncn2-c1ccc2cccc(N3CCC(NC(=O)c4cccc([77Br])c4)CC3)c2n1 [[^77Br]3] .
**A:** 3.08 (0.65) %injected dose/gram tissue

**Q:** If you can, please state the reported Radioactivity in Lung value of COCCOc1ccc2c(c1)ncn2-c1ccc2c([77Br])ccc(N3CCC(N)CC3)c2n1 [[^77Br]2] .
**A:** 10.92 (0.55) %injected dose/gram tissue

**Q:** If you can, please state the reported Radioactivity in Lung value of COCCOc1ccc2c(c1)ncn2-c1ccc2c([125I])ccc(N3CCC(N)CC3)c2n1 [[^125I]4, reference compound] .
**A:** 9.64 (0.66)^* %injected dose/gram tissue

Continue with the compound presented below.
**Q:** If you can, please state the reported Radioactivity in Lung value of COCCOc1ccc2c(c1)ncn2-c1ccc2cccc(N3CCC(NC(=O)c4cccc([125I])c4)CC3)c2n1 [[^125I]5, reference compound] .
**A:** 1.80 (0.30)^* %injected dose/gram tissue

* * *

# Assay Info: Biodistribution in ddY mice
# Type: in vivo
# Details: i.v. co-injection, 10 min
Quick list: Radioactivity in Spleen per entry.

Illustrative cases are given below, each with its answer.
**Q:** If you can, please state the reported Radioactivity in Spleen value of COCCOc1ccc2c(c1)ncn2-c1ccc2cccc(N3CCC(NC(=O)c4cccc([77Br])c4)CC3)c2n1 [[^77Br]3] .
**A:** 3.05 (1.14) %injected dose/gram tissue

**Q:** If you can, please state the reported Radioactivity in Spleen value of COCCOc1ccc2c(c1)ncn2-c1ccc2c([125I])ccc(N3CCC(N)CC3)c2n1 [[^125I]4, reference compound] .
**A:** 5.08 (0.56) %injected dose/gram tissue

**Q:** If you can, please state the reported Radioactivity in Spleen value of COCCOc1ccc2c(c1)ncn2-c1ccc2cccc(N3CCC(NC(=O)c4cccc([125I])c4)CC3)c2n1 [[^125I]5, reference compound] .
**A:** 1.72 (0.23) %injected dose/gram tissue

Continuing:
**Q:** If you can, please state the reported Radioactivity in Spleen value of COCCOc1ccc2c(c1)ncn2-c1ccc2c([77Br])ccc(N3CCC(N)CC3)c2n1 [[^77Br]2] .
**A:** 5.39 (0.40) %injected dose/gram tissue

* * *

# Assay Info: Biodistribution in ddY mice
# Assay type: in vivo
# Details: i.v. co-injection, 1 h
Measure: Radioactivity in Large intestine

**Q:** If you can, please state the reported Radioactivity in Large intestine value of COCCOc1ccc2c(c1)ncn2-c1ccc2c([125I])ccc(N3CCC(N)CC3)c2n1 [[^125I]4, reference compound] .
**A:** 2.16 (0.54) %injected dose/gram tissue

**Q:** If you can, please state the reported Radioactivity in Large intestine value of COCCOc1ccc2c(c1)ncn2-c1ccc2c([77Br])ccc(N3CCC(N)CC3)c2n1 [[^77Br]2] .
**A:** 2.69 (0.65) %injected dose/gram tissue

**Q:** If you can, please state the reported Radioactivity in Large intestine value of COCCOc1ccc2c(c1)ncn2-c1ccc2cccc(N3CCC(NC(=O)c4cccc([125I])c4)CC3)c2n1 [[^125I]5, reference compound] .
**A:** 3.46 (2.18) %injected dose/gram tissue

**Q:** If you can, please state the reported Radioactivity in Large intestine value of COCCOc1ccc2c(c1)ncn2-c1ccc2cccc(N3CCC(NC(=O)c4cccc([77Br])c4)CC3)c2n1 [[^77Br]3] .
**A:** 2.23 (0.75) %injected dose/gram tissue

* * *

Quick list: Radioactivity in Lung per entry.
# Assay Info: Biodistribution in ddY mice
# Type: in vivo
# Details: i.v. co-injection, 4 h

Illustrative cases are given below, each with its answer.
**Q:** If you can, please state the reported Radioactivity in Lung value of COCCOc1ccc2c(c1)ncn2-c1ccc2c([77Br])ccc(N3CCC(N)CC3)c2n1 [[^77Br]2] .
**A:** 2.71 (1.06) %injected dose/gram tissue

**Q:** If you can, please state the reported Radioactivity in Lung value of COCCOc1ccc2c(c1)ncn2-c1ccc2cccc(N3CCC(NC(=O)c4cccc([77Br])c4)CC3)c2n1 [[^77Br]3] .
**A:** 0.45 (0.07) %injected dose/gram tissue

**Q:** If you can, please state the reported Radioactivity in Lung value of COCCOc1ccc2c(c1)ncn2-c1ccc2c([125I])ccc(N3CCC(N)CC3)c2n1 [[^125I]4, reference compound] .
**A:** 2.18 (0.55) %injected dose/gram tissue

Continue with the compound presented below.
**Q:** If you can, please state the reported Radioactivity in Lung value of COCCOc1ccc2c(c1)ncn2-c1ccc2cccc(N3CCC(NC(=O)c4cccc([125I])c4)CC3)c2n1 [[^125I]5, reference compound] .
**A:** 0.50 (0.19) %injected dose/gram tissue

* * *

Quick list: Radioactivity in Brain per entry.
# Assay Info: Biodistribution in ddY mice
# Assay type: in vivo
# Details: i.v. co-injection, 4 h
Marks after values point to notes of the source that are not given here.

**Q:** If you can, please state the reported Radioactivity in Brain value of COCCOc1ccc2c(c1)ncn2-c1ccc2c([77Br])ccc(N3CCC(N)CC3)c2n1 [[^77Br]2] .
**A:** 0.09 (0.00) %injected dose/gram tissue

Continuing:
**Q:** If you can, please state the reported Radioactivity in Brain value of COCCOc1ccc2c(c1)ncn2-c1ccc2cccc(N3CCC(NC(=O)c4cccc([77Br])c4)CC3)c2n1 [[^77Br]3] .
**A:** 0.19 (0.01) %injected dose/gram tissue

* * *

Quick list: Radioactivity in Heart per entry.
# Assay Info: Biodistribution in ddY mice
# Type: in vivo
# Details: i.v. co-injection, 24 h
Marks after values point to notes of the source that are not given here.

**Q:** If you can, please state the reported Radioactivity in Heart value of COCCOc1ccc2c(c1)ncn2-c1ccc2cccc(N3CCC(NC(=O)c4cccc([77Br])c4)CC3)c2n1 [[^77Br]3] .
**A:** 0.72 (0.11) %injected dose/gram tissue

Continuing:
**Q:** If you can, please state the reported Radioactivity in Heart value of COCCOc1ccc2c(c1)ncn2-c1ccc2c([77Br])ccc(N3CCC(N)CC3)c2n1 [[^77Br]2] .
**A:** 0.29 (0.03) %injected dose/gram tissue

* * *

# Assay Info: Biodistribution in ddY mice
# Assay type: in vivo
# Details: i.v. co-injection, 10 min
# Description: In this study, to minimize both the number of mice consumed in the experiment and the potential for experimental errors, we co-injected radiobrominated and radioiodinated compounds into mice[30],[31]. High radioactivity in the liver, small intestine, and large intestine was observed. […] Tissues in mice were resected and weighed. The radioactivity of the tissues was counted by a gamma counter and counts were corrected for background radiation. […]
Marks after values point to notes of the source that are not given here.
Quick list: Radioactivity in Bone per entry.

Illustrative cases are given below, each with its answer.
**Q:** If you can, please state the reported Radioactivity in Bone value of COCCOc1ccc2c(c1)ncn2-c1ccc2c([125I])ccc(N3CCC(N)CC3)c2n1 [[^125I]4, reference compound] .
**A:** 1.53 (0.14) %injected dose/gram tissue

**Q:** If you can, please state the reported Radioactivity in Bone value of COCCOc1ccc2c(c1)ncn2-c1ccc2cccc(N3CCC(NC(=O)c4cccc([77Br])c4)CC3)c2n1 [[^77Br]3] .
**A:** 1.88 (0.15) %injected dose/gram tissue

Continue with the compound presented below.
**Q:** If you can, please state the reported Radioactivity in Bone value of COCCOc1ccc2c(c1)ncn2-c1ccc2c([77Br])ccc(N3CCC(N)CC3)c2n1 [[^77Br]2] .
**A:** 2.81 (1.06) %injected dose/gram tissue

* * *

# Assay Info: Biodistribution in ddY mice
# Type: in vivo
# Details: i.v. co-injection, 1 h
# Description: In this study, to minimize both the number of mice consumed in the experiment and the potential for experimental errors, we co-injected radiobrominated and radioiodinated compounds into mice[30],[31]. High radioactivity in the liver, small intestine, and large intestine was observed. […] Tissues in mice were resected and weighed. The radioactivity of the tissues was counted by a gamma counter and counts were corrected for background radiation. […]
Marks after values point to notes of the source that are not given here.
Measure: Radioactivity in Brain

Illustrative cases are given below, each with its answer.
**Q:** If you can, please state the reported Radioactivity in Brain value of COCCOc1ccc2c(c1)ncn2-c1ccc2c([125I])ccc(N3CCC(N)CC3)c2n1 [[^125I]4, reference compound] .
**A:** 0.15 (0.04) %injected dose/gram tissue

**Q:** If you can, please state the reported Radioactivity in Brain value of COCCOc1ccc2c(c1)ncn2-c1ccc2cccc(N3CCC(NC(=O)c4cccc([77Br])c4)CC3)c2n1 [[^77Br]3] .
**A:** 0.22 (0.05) %injected dose/gram tissue

Continue with the compound presented below.
**Q:** If you can, please state the reported Radioactivity in Brain value of COCCOc1ccc2c(c1)ncn2-c1ccc2c([77Br])ccc(N3CCC(N)CC3)c2n1 [[^77Br]2] .
**A:** 0.10 (0.01) %injected dose/gram tissue
